Biological target: T1, cynomolgus CD79b recombinant protein (cynomolgus)
T1 chain: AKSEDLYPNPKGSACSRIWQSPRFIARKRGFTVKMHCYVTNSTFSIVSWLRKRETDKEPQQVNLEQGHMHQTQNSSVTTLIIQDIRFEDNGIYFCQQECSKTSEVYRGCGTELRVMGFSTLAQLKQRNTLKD
Experiment: ELISA, coated cynomolgus CD79b recombinant protein
Exercise: state measured pIC50 for each of the binders provided.
One number for each entry, as −log10 of the molar value.

The cases that follow already have their pIC50 on record.
BINDER	VALUE OBSERVED
ch23D8 (antibody, human IgG1, kappa, V domains shown, Rabbit/human chimeric IgG1 kappa; also called chimeric 23D8) VH: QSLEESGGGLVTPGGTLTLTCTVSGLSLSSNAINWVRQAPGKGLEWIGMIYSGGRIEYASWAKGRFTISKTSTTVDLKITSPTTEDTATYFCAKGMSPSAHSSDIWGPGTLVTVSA VL: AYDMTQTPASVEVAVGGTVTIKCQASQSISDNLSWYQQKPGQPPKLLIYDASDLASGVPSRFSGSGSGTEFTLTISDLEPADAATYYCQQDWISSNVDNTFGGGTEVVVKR	9.24
ch48H10 (antibody, human IgG1, kappa, V domains shown, Rabbit/human chimeric IgG1 kappa; also called chimeric 48H10) VH: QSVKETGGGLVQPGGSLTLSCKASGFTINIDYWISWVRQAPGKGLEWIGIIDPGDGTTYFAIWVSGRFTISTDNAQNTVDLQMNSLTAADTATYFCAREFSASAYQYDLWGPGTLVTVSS VL: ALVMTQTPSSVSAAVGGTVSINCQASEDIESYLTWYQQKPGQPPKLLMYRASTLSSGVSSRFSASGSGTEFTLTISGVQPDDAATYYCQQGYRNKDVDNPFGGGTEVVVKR	7.18
ch57B9 (antibody, human IgG1, kappa, V domains shown, Rabbit/human chimeric IgG1 kappa; also called chimeric 57B9) VH: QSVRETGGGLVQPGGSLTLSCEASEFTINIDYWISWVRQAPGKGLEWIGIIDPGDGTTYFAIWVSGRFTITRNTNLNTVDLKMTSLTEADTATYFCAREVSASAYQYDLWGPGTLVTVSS VL: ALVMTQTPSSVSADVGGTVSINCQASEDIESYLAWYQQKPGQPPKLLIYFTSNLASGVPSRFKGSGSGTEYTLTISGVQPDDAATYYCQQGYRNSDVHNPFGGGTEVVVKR	6.73

Proceeding to the next binder to report its pIC50.
Task: Fill in the blank: the reported pIC50 of ch44G2 (antibody, human IgG1, kappa, V domains shown, Rabbit/human chimeric IgG1 kappa; also called chimeric 44G2) VH: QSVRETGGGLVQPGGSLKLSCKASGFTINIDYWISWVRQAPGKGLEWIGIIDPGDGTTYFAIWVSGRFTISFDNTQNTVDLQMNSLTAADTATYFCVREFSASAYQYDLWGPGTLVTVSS VL: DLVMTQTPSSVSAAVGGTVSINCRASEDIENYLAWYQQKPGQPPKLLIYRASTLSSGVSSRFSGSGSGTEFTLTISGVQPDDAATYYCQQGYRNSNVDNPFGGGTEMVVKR is ____.
Output: 8.52
